target: α5β3γ2 GABAA receptors (Homo sapiens, UniProt P18507+P31644); assay: [3H]Ro15-1788 binding, membranes of Ltk cells stably expressing α5β3γ2 GABAA receptors; details: ranges; inhibition of [3H]Ro15-1788 binding
Sequence (P31644 32-462): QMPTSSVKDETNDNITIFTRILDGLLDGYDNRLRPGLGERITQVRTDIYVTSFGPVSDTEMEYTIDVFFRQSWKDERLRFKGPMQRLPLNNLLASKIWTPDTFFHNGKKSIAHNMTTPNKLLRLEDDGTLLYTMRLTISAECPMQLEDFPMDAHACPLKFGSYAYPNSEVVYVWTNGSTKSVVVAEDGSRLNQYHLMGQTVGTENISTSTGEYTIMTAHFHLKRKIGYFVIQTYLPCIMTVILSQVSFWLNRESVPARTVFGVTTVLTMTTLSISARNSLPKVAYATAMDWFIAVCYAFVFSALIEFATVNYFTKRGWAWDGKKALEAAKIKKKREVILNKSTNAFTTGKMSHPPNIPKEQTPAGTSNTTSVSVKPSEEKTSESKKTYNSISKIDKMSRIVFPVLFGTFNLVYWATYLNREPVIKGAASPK
Sequence (P28472 26-473 partner): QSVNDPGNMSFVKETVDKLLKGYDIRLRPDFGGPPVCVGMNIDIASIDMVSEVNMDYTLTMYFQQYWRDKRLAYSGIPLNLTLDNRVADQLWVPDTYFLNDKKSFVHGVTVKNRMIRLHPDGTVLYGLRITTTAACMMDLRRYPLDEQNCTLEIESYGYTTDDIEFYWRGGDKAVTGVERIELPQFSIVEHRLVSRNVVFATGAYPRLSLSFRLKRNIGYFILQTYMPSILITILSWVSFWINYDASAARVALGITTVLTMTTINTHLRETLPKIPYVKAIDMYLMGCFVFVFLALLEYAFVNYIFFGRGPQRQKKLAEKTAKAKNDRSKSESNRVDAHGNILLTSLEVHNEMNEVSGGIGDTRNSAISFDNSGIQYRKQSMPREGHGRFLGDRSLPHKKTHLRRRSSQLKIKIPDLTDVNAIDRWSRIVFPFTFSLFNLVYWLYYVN
Sequence (P18507 40-475): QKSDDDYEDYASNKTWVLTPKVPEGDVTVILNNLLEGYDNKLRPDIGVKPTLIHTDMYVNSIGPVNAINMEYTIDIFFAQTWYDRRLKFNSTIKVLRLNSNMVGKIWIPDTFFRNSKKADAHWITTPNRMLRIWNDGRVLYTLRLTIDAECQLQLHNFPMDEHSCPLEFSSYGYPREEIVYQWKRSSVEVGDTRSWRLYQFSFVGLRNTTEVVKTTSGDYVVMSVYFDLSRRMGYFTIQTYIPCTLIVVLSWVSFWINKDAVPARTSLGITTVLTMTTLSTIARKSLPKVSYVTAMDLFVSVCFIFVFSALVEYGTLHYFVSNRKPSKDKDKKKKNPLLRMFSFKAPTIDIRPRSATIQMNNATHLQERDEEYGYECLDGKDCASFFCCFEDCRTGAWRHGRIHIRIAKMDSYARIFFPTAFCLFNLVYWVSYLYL
pKi: −log10 of the molar value.
Please provide measured pKi for the entries that follow.

Please go through the list and note pKi for each molecule.
1. Cc1noc(-c2ncn3c2Cc2c(Cc4cccc(F)c4)nnn2-c2cc(OC(F)F)ccc2-3)n1
2. CC(C)c1noc(-c2ncn3c2Cc2c(Cc4ccc(F)cc4)nnn2-c2cc(C(F)(F)F)ccc2-3)n1
3. COCc1nnc2n1Cc1c(C#Cc3cnc(OC)nc3)ncn1-c1ccc(Cl)cc1-2
4. COCc1nnc2n1Cc1c(C#Cc3ncc(C)s3)ncn1-c1ccc(OC)cc1-2

Reply:
["> 7.00", "> 7.00", "6.00 to 7.00", "> 7.00"]

Please go through the list and note pKi for each molecule.
1. COCc1nnc2n1Cc1c(C#Cc3ccc(OC)nc3)ncn1-c1ccc(Cl)cc1-2
2. Cn1nccc1C#Cc1ncn2c1Cc1cnnn1-c1cc(Cl)ccc1-2

Reply:
1. > 7.00
2. > 7.00
